molecular target: T1, Recombinant Human FGFR2 alpha (IIIc) Fc Chimera Protein, CF (R&D systems, 712-FR-050) (human, UniProt P21802 22-377); test: ELISA on plate-bound FGFR2-Fc
T1 construct: bought; not shown: Fc part of the chimera
T1 sequence (P21802 22-377, change not shown): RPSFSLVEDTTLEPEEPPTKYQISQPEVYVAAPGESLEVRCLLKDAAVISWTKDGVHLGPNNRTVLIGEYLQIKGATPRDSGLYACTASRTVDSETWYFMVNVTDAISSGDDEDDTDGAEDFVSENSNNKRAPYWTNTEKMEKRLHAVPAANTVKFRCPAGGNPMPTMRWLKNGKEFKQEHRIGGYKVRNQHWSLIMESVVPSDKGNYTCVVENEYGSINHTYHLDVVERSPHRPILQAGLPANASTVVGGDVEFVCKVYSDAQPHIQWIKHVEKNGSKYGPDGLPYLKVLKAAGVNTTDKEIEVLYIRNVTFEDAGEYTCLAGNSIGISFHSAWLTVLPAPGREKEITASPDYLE
Bridge positions count the residues as written; N and C are the ends. Ends that are not written are not given here. COCH2 = acetyl group that carries the bridge
Listed next: entries and their corresponding ELISA luminescence signal at 10 nmol/L peptide, relative to SEQ ID NO: 47 (=1).
quantity_kind: ELISA luminescence signal at 10 nmol/L peptide, relative to SEQ ID NO: 47 (=1)

binder	result
KCPQNFIAPVQWRYFQHYKN (not fully specified; thioether ring (C)-(K(acetyl))) [cyclic peptide SEQ ID NO: 59]	0.5 to 0.7 ratio
YCEENYLDPEQYMYFIYFK(COCH2)Y (thioether 2-19) [cyclic peptide SEQ ID NO: 356]	≥ 0.7 ratio
KCPQNFINPVQWRYFQHYAKN (thioether ring (C)-(K(acetyl))) [cyclic peptide SEQ ID NO: 69]	0.1 to 0.5 ratio
YCENNYLDPEQYQYFIYFK(COCH2)Y (thioether 2-19 (inferred)) [cyclic peptide SEQ ID NO: 174]	≥ 0.7 ratio
YCEENYLDPEQYGYFIYFK(COCH2)Y (thioether 2-19 (inferred)) [cyclic peptide SEQ ID NO: 257]	≥ 0.7 ratio
ACEENYLDPEQYQYFIYFK(COCH2)Y (thioether 2-19 (inferred)) [cyclic peptide SEQ ID NO: 322]	≥ 0.7 ratio
FCEENYLDPEQYQYFIYFK(COCH2)Y (thioether 2-19) [cyclic peptide SEQ ID NO: 141]	≥ 0.7 ratio
QCPQNFINPVQHRYFQHYK(COCH2)N (thioether 2-19) [cyclic peptide SEQ ID NO: 106]	≥ 0.7 ratio
YCEENYLFPEQYQYFIYFK(COCH2)Y (thioether 2-19 (inferred)) [cyclic peptide SEQ ID NO: 211]	≥ 0.7 ratio
YCEENYLDPLQYQYFIYFK(COCH2)Y (thioether 2-19 (inferred)) [cyclic peptide SEQ ID NO: 238]	≥ 0.7 ratio
YCPPQLVYLYQYLYK(COCH2)L (thioether 2-15) [cyclic peptide SEQ ID NO: 380]	0.1 to 0.5 ratio
LCPQNFINPVQWRYFQHYK(COCH2)N (thioether 2-19 (inferred)) [cyclic peptide SEQ ID NO: 73]	≥ 0.7 ratio
VCLDEQQALFHQYYRITRRK(COCH2)V (thioether 2-20 (inferred)) [cyclic peptide SEQ ID NO: 421]	0.1 to 0.5 ratio
YCEENYLDPEQYQYFEYFK(COCH2)Y (thioether 2-19 (inferred)) [cyclic peptide SEQ ID NO: 288]	≥ 0.7 ratio
YCTDNYIDDIQFWYLFLYK(COCH2)H (thioether 2-19) [cyclic peptide SEQ ID NO: 114]	≥ 0.7 ratio
YCEENYLGPEQYQYFIYFK(COCH2)Y (thioether 2-19 (inferred)) [cyclic peptide SEQ ID NO: 207]	≥ 0.7 ratio
QCSYLYQYVFERYKVTVPK(COCH2)D (thioether 2-19; not fully specified; printed as Q-(C)-SYLYQYVFERYKVTVP-(K(acetyl))-D) [cyclic peptide SEQ ID NO: 38]	≥ 0.7 ratio
YCLENYLDPEQYQYFIYFK(COCH2)Y (thioether 2-19) [cyclic peptide SEQ ID NO: 153]	≥ 0.7 ratio
YCEENYIDPEQYQYFIYFK(COCH2)Y (thioether 2-19 (inferred)) [cyclic peptide SEQ ID NO: 195]	≥ 0.7 ratio
